Values were extracted from patent US20210087281A1.

Listed here: items and their measured branches per spheroid, MLP29 cells, 12.5 nM.
molecular target: native mouse MET on living cells (mouse, UniProt P16056 25-1379); test: cell-based or functional assay
# unit: branches | format: bare number

Guide cases for branches per spheroid, MLP29 cells, 12.5 nM, answers given:
>  <BINDER>
71G12 chimeric llama-human IgG1 mAb (antibody, V domains shown, llama VH on human IgG1 CH1-CH2-CH3, llama VL on human kappa CL) VH: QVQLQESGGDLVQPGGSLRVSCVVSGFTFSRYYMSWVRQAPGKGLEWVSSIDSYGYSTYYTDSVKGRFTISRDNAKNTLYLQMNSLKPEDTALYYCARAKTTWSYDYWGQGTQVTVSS VL: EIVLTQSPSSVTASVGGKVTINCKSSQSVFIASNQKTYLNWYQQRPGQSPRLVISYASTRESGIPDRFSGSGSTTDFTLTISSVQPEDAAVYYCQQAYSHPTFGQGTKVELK

>  <MEAS VALUE>
22.7

$$$$
>  <BINDER>
76G7 chimeric llama-human IgG1 mAb (antibody, V domains shown, llama VH on human IgG1 CH1-CH2-CH3, llama VL on human lambda CL) VH: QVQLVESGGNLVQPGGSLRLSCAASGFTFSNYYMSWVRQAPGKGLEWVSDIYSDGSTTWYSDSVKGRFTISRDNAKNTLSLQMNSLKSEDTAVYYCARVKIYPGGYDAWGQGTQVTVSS VL: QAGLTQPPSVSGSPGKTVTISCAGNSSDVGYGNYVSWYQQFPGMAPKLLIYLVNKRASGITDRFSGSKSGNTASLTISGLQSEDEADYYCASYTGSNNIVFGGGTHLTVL

>  <MEAS VALUE>
24.7

$$$$
>  <BINDER>
71D6 chimeric llama-human IgG1 mAb (antibody, V domains shown, llama VH on human IgG1 CH1-CH2-CH3, llama VL on human lambda CL) VH: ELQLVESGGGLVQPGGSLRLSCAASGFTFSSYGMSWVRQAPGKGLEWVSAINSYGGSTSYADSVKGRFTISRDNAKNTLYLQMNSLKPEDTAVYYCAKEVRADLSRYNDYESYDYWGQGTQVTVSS VL: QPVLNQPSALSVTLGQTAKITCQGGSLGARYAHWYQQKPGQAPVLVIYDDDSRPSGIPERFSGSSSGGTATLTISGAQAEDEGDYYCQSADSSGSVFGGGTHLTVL

>  <MEAS VALUE>
41.3

$$$$
>  <BINDER>
76H10 chimeric llama-human IgG1 mAb (antibody, V domains shown, llama VH on human IgG1 CH1-CH2-CH3, llama VL on human lambda CL) VH: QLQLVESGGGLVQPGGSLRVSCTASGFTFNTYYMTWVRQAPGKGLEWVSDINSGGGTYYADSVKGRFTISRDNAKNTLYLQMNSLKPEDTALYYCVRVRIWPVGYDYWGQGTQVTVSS VL: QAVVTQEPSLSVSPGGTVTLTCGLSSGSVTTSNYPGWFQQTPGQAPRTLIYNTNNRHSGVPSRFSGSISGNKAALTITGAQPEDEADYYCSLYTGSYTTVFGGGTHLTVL

>  <MEAS VALUE>
24.7

$$$$
>  <BINDER>
71D4 chimeric llama-human IgG1 mAb (antibody, V domains shown, llama VH on human IgG1 CH1-CH2-CH3, llama VL on human lambda CL) VH: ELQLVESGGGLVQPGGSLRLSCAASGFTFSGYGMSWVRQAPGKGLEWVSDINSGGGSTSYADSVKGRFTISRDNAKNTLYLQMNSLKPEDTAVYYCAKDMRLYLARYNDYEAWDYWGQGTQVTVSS VL: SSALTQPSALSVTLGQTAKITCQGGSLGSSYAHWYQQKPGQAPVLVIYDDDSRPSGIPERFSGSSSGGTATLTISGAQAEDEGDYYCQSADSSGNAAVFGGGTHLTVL

>  <MEAS VALUE>
21.7

$$$$
>  <BINDER>
71C3 chimeric llama-human IgG1 mAb (antibody, V domains shown, llama VH on human IgG1 CH1-CH2-CH3, llama VL on human lambda CL) VH: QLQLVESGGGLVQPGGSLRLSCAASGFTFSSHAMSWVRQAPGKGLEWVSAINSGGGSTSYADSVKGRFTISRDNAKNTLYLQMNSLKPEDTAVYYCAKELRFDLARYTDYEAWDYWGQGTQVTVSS VL: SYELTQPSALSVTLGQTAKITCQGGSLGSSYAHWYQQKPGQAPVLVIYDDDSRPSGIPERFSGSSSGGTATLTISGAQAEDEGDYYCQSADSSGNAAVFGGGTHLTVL

>  <MEAS VALUE>
24.7

$$$$

Pending binder:
What the record says about 74C8 chimeric llama-human IgG1 mAb (antibody, V domains shown, llama VH on human IgG1 CH1-CH2-CH3, llama VL on human lambda CL) VH: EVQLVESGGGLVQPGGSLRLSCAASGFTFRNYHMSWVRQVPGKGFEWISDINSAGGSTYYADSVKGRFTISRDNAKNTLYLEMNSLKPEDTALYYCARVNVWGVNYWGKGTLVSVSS VL: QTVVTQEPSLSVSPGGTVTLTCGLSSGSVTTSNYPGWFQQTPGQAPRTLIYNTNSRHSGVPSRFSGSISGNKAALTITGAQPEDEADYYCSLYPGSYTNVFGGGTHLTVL : branches per spheroid, MLP29 cells, 12.5 nM is 22.3
